I'd appreciate it if you could supply bioavailabiltty (% HC) IN Cmax values for the items below.
- TEST: Intranasal bioavailability of hydrocodone conjugates
- SETUP CONDITIONS: rats, relative to hydrocodone
Residues, ends and D or L forms follow the SMILES beside them. *: point of attachment. X1 = COc1ccc2c3c1OC1C(O*)=CCC4[C@@H](C2)N(C)CC[C@]314
Answer in % HC, number only, no unit symbol.

Data request: Endpoint output: bioavailabiltty (% HC) IN Cmax of CC[C@H](C)[C@H](NC(=O)[C@H](Cc1ccccc1)NC(=O)[C@H](Cc1ccccc1)NC(=O)[C@H](CCC(=O)O)NC(=O)[C@@H](N)CCC(=O)O)C(=O)OC1=CCC2[C@H]3Cc4ccc(OC)c5c4[C@@]2(CCN3C)C1O5 (stereo partly drawn) [Glu2-Phe2-Ile-HC] (H-EEFFI-X1) . Value?
Data returned: 76

Data request: Endpoint output: bioavailabiltty (% HC) IN Cmax of CC[C@H](C)[C@H](NC(=O)[C@@H]1CCCN1)C(=O)N[C@H](C(=O)OC1=CCC2[C@H]3Cc4ccc(OC)c5c4[C@@]2(CCN3C)C1O5)[C@@H](C)CC (stereo partly drawn) . Value?
Data returned: 102

Data request: Endpoint output: bioavailabiltty (% HC) IN Cmax of COc1ccc2c3c1OC1C(OC(=O)[C@H](Cc4ccccc4)NC(=O)CNC(=O)CNC(=O)[C@H](CCC(=O)O)NC(=O)[C@@H](N)CCC(=O)O)=CCC4[C@@H](C2)N(C)CC[C@]314 (stereo partly drawn) [Glu2-Gly2-Phe-HC] (H-EEGGF-X1) . Value?
Data returned: 97

* * *

I'd appreciate it if you could supply bioavailabiltty (% HC) IN Cmax values for the items below.
- TEST: Intranasal bioavailability of hydrocodone conjugates
- SETUP CONDITIONS: rats, relative to hydrocodone
Residues, ends and D or L forms follow the SMILES beside them. *: point of attachment. X1 = COc1ccc2c3c1OC1C(O*)=CCC4[C@@H](C2)N(C)CC[C@]314
Please don't drop the unit; write it after the number.

Data request: Endpoint output: bioavailabiltty (% HC) IN Cmax of CC[C@H](C)[C@H](NC(=O)[C@H](Cc1ccc(O)cc1)NC(=O)[C@@H](N)Cc1ccc(O)cc1)C(=O)OC1=CCC2[C@H]3Cc4ccc(OC)c5c4[C@@]2(CCN3C)C1O5 (stereo partly drawn) [Tyr-Tyr-Ile-HC] . Value?
Data returned: 34 % HC

Data request: Endpoint output: bioavailabiltty (% HC) IN Cmax of CC[C@H](C)[C@H](NC(=O)[C@@H]1CCCN1C(=O)[C@@H]1CCCN1C(=O)CNC(=O)CN)C(=O)OC1=CCC2[C@H]3Cc4ccc(OC)c5c4[C@@]2(CCN3C)C1O5 (stereo partly drawn) [Gly2-Pro2-Ile-HC] (H-GGPPI-X1) . Value?
Data returned: 56 % HC

Data request: Endpoint output: bioavailabiltty (% HC) IN Cmax of CC[C@H](C)[C@H](NC(=O)[C@H](CCC(=O)O)NC(=O)[C@@H](N)CCC(=O)O)C(=O)OC1=CCC2[C@H]3Cc4ccc(OC)c5c4[C@@]2(CCN3C)C1O5 (stereo partly drawn) [Glu-Glu-Ile-HC] . Value?
Data returned: 59 % HC

* * *

- TEST: Oral bioavailability of hydrocodone conjugates (plasma hydrocodone plus hydromorphone)
- SETUP CONDITIONS: ratio of oral to IN AUC (% HC)
Residues, ends and D or L forms follow the SMILES beside them. *: point of attachment. X1 = COc1ccc2c3c1OC1C(O*)=CCC4[C@@H](C2)N(C)CC[C@]314
EXPERIMENTAL READOUT: Oral:IN Index AUC
Answer using only a numeral; do not append any unit.

Data request: Endpoint output: Oral:IN Index AUC of COc1ccc2c3c1OC1C(OC(=O)[C@H](Cc4ccccc4)NC(=O)[C@H](Cc4ccccc4)NC(=O)[C@H](Cc4ccccc4)NC(=O)[C@H](CCC(=O)O)NC(=O)[C@@H](N)CCC(=O)O)=CCC4[C@@H](C2)N(C)CC[C@]314 (stereo partly shown) [Glu2-Phe3-HC, Glu2-Phe3-Hydrocodone] (H-EEFFF-X1) . Value?
Data returned: 3.07

Data request: Endpoint output: Oral:IN Index AUC of CC[C@H](C)[C@H](NC(=O)[C@H](CC(=O)O)NC(=O)[C@H](CC(=O)O)NC(=O)[C@H](CCCCN)NC(=O)[C@@H](N)CCCCN)C(=O)OC1=CCC2[C@H]3Cc4ccc(OC)c5c4[C@@]2(CCN3C)C1O5 (stereo partly shown) [Lys2-Asp2-Ile-HC] (H-KKDDI-X1) . Value?
Data returned: 2.31

Data request: Endpoint output: Oral:IN Index AUC of CC[C@H](C)[C@H](NC(=O)[C@H](CCCCN)NC(=O)[C@@H](N)CCCCN)C(=O)OC1=CCC2[C@H]3Cc4ccc(OC)c5c4[C@@]2(CCN3C)C1O5 (stereo partly shown) . Value?
Data returned: 1.18

Data request: Endpoint output: Oral:IN Index AUC of CC[C@H](C)[C@H](NC(=O)[C@H](Cc1ccc(O)cc1)NC(=O)[C@@H](N)Cc1ccc(O)cc1)C(=O)OC1=CCC2[C@H]3Cc4ccc(OC)c5c4[C@@]2(CCN3C)C1O5 (stereo partly shown) . Value?
Data returned: 7.25

* * *

I'd appreciate it if you could supply Oral AUC % values for the items below.
- TEST: Oral bioavailability of hydromorphone conjugates
- SETUP CONDITIONS: rats, corrected value calculated based on the bioavailability of the control (HM)
Where a name gives a salt, the structure may show the parent alone. Residues, ends and D or L forms follow the SMILES beside them. *: point of attachment. X4 = CC(=O)Oc1ccc2c3c1OC1C(O*)=CCC4[C@@H](C2)N(C)CC[C@]314; X2 = CN1CC[C@]23c4c5ccc(O)c4O[C@H]2C(O*)=CC[C@H]3[C@H]1C5
Answer in %, number only, no unit symbol.

Data request: Endpoint output: Oral AUC % of CC[C@H](C)[C@H](NC(=O)[C@H](Cc1ccccc1)NC(=O)[C@@H](N)Cc1ccccc1)C(=O)OC1=CC[C@H]2[C@H]3Cc4ccc(O)c5c4[C@@]2(CCN3C)[C@H]1O5 . Value?
Data returned: 18

Data request: Endpoint output: Oral AUC % of CC[C@H](C)[C@H](NC(=O)CNC(=O)CN)C(=O)OC1=CCC2[C@H]3Cc4ccc(O)c5c4[C@@]2(CCN3C)C1O5 (stereo partly shown) . Value?
Data returned: 17

Data request: Endpoint output: Oral AUC % of CC[C@H](C)[C@H](NC(=O)[C@H](Cc1ccccc1)NC(=O)[C@H](Cc1ccccc1)NC(=O)[C@H](Cc1ccc(O)cc1)NC(=O)[C@@H](N)Cc1ccc(O)cc1)C(=O)OC1=CCC2[C@H]3Cc4ccc(OC(C)=O)c5c4[C@@]2(CCN3C)C1O5 (stereo partly shown) [YYFFI-HM-OAc] (H-YYFFI-X4) . Value?
Data returned: 29

Data request: Endpoint output: Oral AUC % of CN1CC[C@]23c4c5ccc(O)c4O[C@H]2C(OC(=O)[C@H](Cc2ccccc2)NC(=O)[C@H](Cc2ccccc2)NC(=O)[C@H](Cc2ccccc2)NC(=O)[C@H](CCC(=O)O)NC(=O)[C@@H](N)CCC(=O)O)=CC[C@H]3[C@H]1C5 [EEFFF-HM, Glu2-Phe3-Hydromorphone.Dihydrochloride] (H-EEFFF-X2) . Value?
Data returned: 79

* * *

- TEST: Intranasal bioavailability of hydromorphone conjugates
- SETUP CONDITIONS: rats, corrected value calculated based on the control (HM)
Structures can show the parent of a compound that is named as a salt. Residues, ends and D or L forms follow the SMILES beside them. *: point of attachment. X4 = CC(=O)Oc1ccc2c3c1OC1C(O*)=CCC4[C@@H](C2)N(C)CC[C@]314; X2 = CN1CC[C@]23c4c5ccc(O)c4O[C@H]2C(O*)=CC[C@H]3[C@H]1C5; X3 = CN1CC[C@]23c4c5ccc(O)c4OC2C(O*)=CCC3[C@H]1C5
# binarize IN Cmax %: threshold 90% inclusive, high side Y, low side N

Data request: Does the reported IN Cmax % for CC(C)[C@H](NC(=O)[C@@H]1CCCN1C(=O)[C@@H]1CCCN1)C(=O)OC1=CCC2[C@H]3Cc4ccc(O)c5c4[C@@]2(CCN3C)C1O5 (stereo partly drawn) fall at or above the 90% mark?
Data returned: Y

Data request: Does the reported IN Cmax % for CC[C@H](C)[C@H](NC(=O)[C@H](Cc1ccc(O)cc1)NC(=O)[C@@H](N)Cc1ccc(O)cc1)C(=O)OC1=CCC2[C@H]3Cc4ccc(O)c5c4[C@@]2(CCN3C)C1O5 (stereo partly drawn) fall at or above the 90% mark?
Data returned: N

Data request: Does the reported IN Cmax % for CC(C)C[C@H](NC(=O)[C@H](Cc1ccccc1)NC(=O)[C@@H](N)Cc1ccccc1)C(=O)OC1=CC[C@H]2[C@H]3Cc4ccc(O)c5c4[C@@]2(CCN3C)[C@H]1O5 fall at or above the 90% mark?
Data returned: Y

Data request: Does the reported IN Cmax % for CC(C)[C@H](NC(=O)[C@H](Cc1ccccc1)NC(=O)[C@@H](N)Cc1ccccc1)C(=O)OC1=CC[C@H]2[C@H]3Cc4ccc(O)c5c4[C@@]2(CCN3C)[C@H]1O5 fall at or above the 90% mark?
Data returned: Y

Data request: Does the reported IN Cmax % for CC[C@H](C)[C@H](NC(=O)[C@H](Cc1ccccc1)NC(=O)[C@H](Cc1ccccc1)NC(=O)[C@H](Cc1ccc(O)cc1)NC(=O)[C@@H](N)Cc1ccc(O)cc1)C(=O)OC1=CCC2[C@H]3Cc4ccc(O)c5c4[C@@]2(CCN3C)C1O5 (stereo partly drawn) [YYFFI-HM] (H-YYFFI-X3) fall at or above the 90% mark?
Data returned: N

Data request: Does the reported IN Cmax % for CC(C)[C@H](NC(=O)[C@H](CCC(=O)O)NC(=O)[C@@H](N)CCC(=O)O)C(=O)OC1=CC[C@H]2[C@H]3Cc4ccc(O)c5c4[C@@]2(CCN3C)[C@H]1O5 fall at or above the 90% mark?
Data returned: N

Data request: Does the reported IN Cmax % for CC[C@H](C)[C@H](NC(=O)[C@H](CCCCN)NC(=O)[C@@H](N)CCCCN)C(=O)OC1=CCC2[C@H]3Cc4ccc(O)c5c4[C@@]2(CCN3C)C1O5 (stereo partly drawn) fall at or above the 90% mark?
Data returned: N

Data request: Does the reported IN Cmax % for CC(C)C[C@H](NC(=O)[C@H](Cc1ccc(O)cc1)NC(=O)[C@@H](N)Cc1ccc(O)cc1)C(=O)OC1=CCC2[C@H]3Cc4ccc(O)c5c4[C@@]2(CCN3C)C1O5 (stereo partly drawn) fall at or above the 90% mark?
Data returned: N

Data request: Does the reported IN Cmax % for CC(C)[C@H](NC(=O)[C@H](Cc1ccc(O)cc1)NC(=O)[C@@H](N)Cc1ccc(O)cc1)C(=O)OC1=CCC2[C@H]3Cc4ccc(O)c5c4[C@@]2(CCN3C)C1O5 (stereo partly drawn) fall at or above the 90% mark?
Data returned: N

Data request: Does the reported IN Cmax % for CC(C)C[C@H](NC(=O)[C@H](CCC(=O)O)NC(=O)[C@@H](N)CCC(=O)O)C(=O)OC1=CC[C@H]2[C@H]3Cc4ccc(O)c5c4[C@@]2(CCN3C)[C@H]1O5 fall at or above the 90% mark?
Data returned: Y

Data request: Does the reported IN Cmax % for CC[C@H](C)[C@H](NC(=O)[C@H](Cc1ccccc1)NC(=O)[C@H](Cc1ccccc1)NC(=O)[C@H](Cc1ccc(O)cc1)NC(=O)[C@@H](N)Cc1ccc(O)cc1)C(=O)OC1=CCC2[C@H]3Cc4ccc(OC(C)=O)c5c4[C@@]2(CCN3C)C1O5 (stereo partly drawn) [YYFFI-HM-OAc] (H-YYFFI-X4) fall at or above the 90% mark?
Data returned: N

Data request: Does the reported IN Cmax % for CN1CC[C@]23c4c5ccc(O)c4O[C@H]2C(OC(=O)[C@H](Cc2ccccc2)NC(=O)[C@H](Cc2ccccc2)NC(=O)[C@H](Cc2ccccc2)NC(=O)[C@H](CCC(=O)O)NC(=O)[C@@H](N)CCC(=O)O)=CC[C@H]3[C@H]1C5 [EEFFF-HM, Glu2-Phe3-Hydromorphone.Dihydrochloride] (H-EEFFF-X2) fall at or above the 90% mark?
Data returned: N

Data request: Does the reported IN Cmax % for CC(C)[C@H](NC(=O)CNC(=O)CN)C(=O)OC1=CCC2[C@H]3Cc4ccc(O)c5c4[C@@]2(CCN3C)C1O5 (stereo partly drawn) fall at or above the 90% mark?
Data returned: N

Data request: Does the reported IN Cmax % for CC[C@H](C)[C@H](NC(=O)[C@@H]1CCCN1C(=O)[C@@H]1CCCN1)C(=O)OC1=CCC2[C@H]3Cc4ccc(O)c5c4[C@@]2(CCN3C)C1O5 (stereo partly drawn) fall at or above the 90% mark?
Data returned: Y

Data request: Does the reported IN Cmax % for CC(C)C[C@H](NC(=O)[C@H](CCCCN)NC(=O)[C@@H](N)CCCCN)C(=O)OC1=CCC2[C@H]3Cc4ccc(O)c5c4[C@@]2(CCN3C)C1O5 (stereo partly drawn) fall at or above the 90% mark?
Data returned: Y
